The values you see were collected from patent US20250027068A1.

Task for the reader: assign each of the following binders its reported Enzyme Activity Endpoint Assay: Fc.
Molecular target: pooled human IgG (human IgG1, 2, 3 and 4) (human); note: test concentration or dose not given here
Experiment: cell-based or functional assay
Entry rule: numbers only, all in ng/µL.

Request: State the recorded Enzyme Activity Endpoint Assay: Fc for this entry: PRT-425 (enzyme) MTITSVWTKGVTPPTPEDFRYNNEDVLHAPYVANQGWYDITKTFDGKDNLLCGAATAGNMLHWWFDQNKEEIERYLKKHPEKQKIIFNNQELFDVKAAIDTKDSQTNSKLFNYFRDKAFPGLSARQLGVMPDLVLDMFINGYYLNLGKTQSTDVNRPYQDKDKRGGIFDAVFTRGDQTTLLTARHDLKNKGLNEISDLIKQELTEGKALALSHTYANVRINHVINLWGADFDAEGNLIAIYVTDSDANASIGMKKYFVGVNANGKVAISAKKIEGDNIGAQVLGLFTLSTGQDIWQKLS
Result: 27

Request: Give the measured Enzyme Activity Endpoint Assay: Fc of PRT-443 (enzyme) MSQTEDSESLQRLRDIEDFQAEKKKQNVVYTKWLDGVDVKDHDFRKIVDGNIAYYATPLLNGRGFYDINKDFNRDSDKCAAAVAANMFHYWLDRNRDNVDRFLRQNPEKHGIIELPDEQLKLSDFLNTYESDDGYRDKSKLFDFISNNFNGPVWTDKLLDNYINGYAYNYKYGRTIEDPTKNTSKINFFKEVFNEKILTNNHSIRNQNEFSVLLSEALYTGKAIGLSYGPAGLRHSLGHIISVWGADLDADGNVVAIYVTDSDDKKLTIGDERVGLKRYKISTDDEGRLRLTAYEETHNTGGQIRGLWTLDTGKQAWADYFDKTEQTGTDQAEQ .
Result: 0
